Value source: paper PMC5046105

TESTED_ON: pWT PDZ2 (pseudo wild type SAP97 PDZ2, I342W/C378A) (Homo sapiens, UniProt Q12959, C378A/I342W)
Construct: constituting SAP97 residues 311–407 and the mutations I342W and C372A; His-tagged lipoyl protein domain (N, cleaved yes); made in house
Sequence (Q12959 311-407 I342W/C378A): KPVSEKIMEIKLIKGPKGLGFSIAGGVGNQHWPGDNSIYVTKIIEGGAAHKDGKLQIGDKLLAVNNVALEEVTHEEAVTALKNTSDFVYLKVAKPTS
MEASUREMENT_NOTES: Stopped-flow binding kinetics, peptide with pWT PDZ2
STATED_CONDITIONS: Trp342 fluorescence, 1 µM PDZ, peptide 2–40 µM, N-acetylated peptide, 50 mM potassium phosphate pH 7.5, 10 °C, value ± standard error
Ends that are not written are not given here.
Would you kindly list kon for each of these substances?
Only the number, expressed in M⁻¹ s⁻¹, is required.

Data point: Ac-KRKETLV [KRKETLV] ; kon = 6.4e+06

Data point: Ac-TSRETDL [TSRETDL] ; kon = 3.3e+07

Data point: Ac-RRRETQV [RRRETQV, reference compound] ; kon = 8e+06

Data point: Ac-PGKETQL [PGKETQL] ; kon = 1.8e+07

Data point: Ac-NSKETVV [NSKETVV] ; kon = 1.3e+07

Data point: Ac-YRRESAI [YRRESAI] ; kon = 1.9e+07

Data point: Ac-EKKHTLL [EKKHTLL] ; kon = 1.2e+07

Data point: Ac-VSKETPL [VSKETPL] ; kon = 4e+07

Data point: Ac-SARSTDV [SARSTDV] ; kon = 1.6e+07

Data point: Ac-RSISTDV [RSISTDV] ; kon = 2.1e+07

---

TESTED_ON: PDZØ9 (pWT SAP97 PDZ2 L391F/K392M) (Homo sapiens, UniProt Q12959, C378A/I342W/K392M/L391F)
Construct: constituting SAP97 residues 311–407 and the mutations I342W and C372A; His-tagged lipoyl protein domain (N, cleaved yes); made in house
Sequence (Q12959 311-407 I342W/C378A/L391F/K392M): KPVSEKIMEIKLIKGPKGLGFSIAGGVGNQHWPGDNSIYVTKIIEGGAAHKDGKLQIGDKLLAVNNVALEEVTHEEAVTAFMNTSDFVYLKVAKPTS
MEASUREMENT_NOTES: Stopped-flow binding kinetics, peptide with PDZØ9
STATED_CONDITIONS: displacement of pre-formed complex (1 µM PDZ, 2 µM peptide) with 100 and 150 µM dansylated RRRETQV peptide, stopped-flow, pH 7.5, 10 °C; value ± standard error
Ends that are not written are not given here.
Values of koff greater than or equal to 4 s⁻¹ map to condition met; values below map to condition not met.

Confirm if koff reported for the substance Ac-KRKETLV [KRKETLV] is 4 s⁻¹ or above.
condition not met

Confirm if koff reported for the substance Ac-TSRETDL [TSRETDL] is 4 s⁻¹ or above.
condition not met

Confirm if koff reported for the substance Ac-EKKHTLL [EKKHTLL] is 4 s⁻¹ or above.
condition met

Confirm if koff reported for the substance Ac-NSKETVV [NSKETVV] is 4 s⁻¹ or above.
condition not met

Confirm if koff reported for the substance Ac-VSKETPL [VSKETPL] is 4 s⁻¹ or above.
condition met

Confirm if koff reported for the substance Ac-RSISTDV [RSISTDV] is 4 s⁻¹ or above.
condition met

Confirm if koff reported for the substance Ac-YRRESAI [YRRESAI] is 4 s⁻¹ or above.
condition met

Confirm if koff reported for the substance Ac-SARSTDV [SARSTDV] is 4 s⁻¹ or above.
condition not met

Confirm if koff reported for the substance Ac-RRRETQV [RRRETQV, reference compound] is 4 s⁻¹ or above.
condition not met
